system: [Pyruvate dehydrogenase (acetyl-transferring)] kinase isozyme 1, mitochondrial (Homo sapiens)
Sequence (Q15118 whole entry, the tested form may be a part): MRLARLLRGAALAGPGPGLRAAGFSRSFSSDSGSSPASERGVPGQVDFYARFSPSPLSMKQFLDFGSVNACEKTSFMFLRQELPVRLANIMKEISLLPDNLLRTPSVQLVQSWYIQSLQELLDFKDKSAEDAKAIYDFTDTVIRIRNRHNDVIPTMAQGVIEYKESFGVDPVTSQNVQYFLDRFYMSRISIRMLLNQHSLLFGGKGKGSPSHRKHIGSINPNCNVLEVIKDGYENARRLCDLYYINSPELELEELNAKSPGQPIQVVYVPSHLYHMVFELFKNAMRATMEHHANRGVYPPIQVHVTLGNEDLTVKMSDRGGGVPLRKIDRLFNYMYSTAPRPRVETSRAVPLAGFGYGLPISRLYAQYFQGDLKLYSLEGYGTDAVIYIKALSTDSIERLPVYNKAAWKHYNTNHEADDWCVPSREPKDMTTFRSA
protocol: Inhibition of recombinant full-length human PDK1 (1 to 436 residues) expressed in baculovirus infected Sf9 insect cells using PDHA1 as substrate incubated for 1 hrs in presence of ATP by Kinase-Glo luminescence assay
measurement_type: IC50 (µM)
State just the number; it will be interpreted in µM.

Entry `CN(C)C(=O)c1ccc(S(=O)(=O)c2ccc(NC(=O)[C@@](C)(O)C(F)(F)F)c(Cl)c2)cc1` : reported IC50 = ? 0.0323

---

system: [Pyruvate dehydrogenase (acetyl-transferring)] kinase isozyme 1, mitochondrial (Homo sapiens)
protocol: Inhibition of 6His-tagged full length PDK1 (unknown origin) expressed in Escherichia coli in presence of ATP by ELISA based kinase activity assay
measurement_type: pEC50
pEC50 here is simply -log10 of the concentration when that concentration is written in mol/L.

Entry `S=C(SSC(=S)N1CCOCC1)N1CCOCC1` : reported pEC50 = ? 7.31
